# Test system: NL20 human bronchial epithelial cells expressing human Z-AAT (Homo sapiens, UniProt P01009, E366K)
# Sequence (P01009 25-418 E366K): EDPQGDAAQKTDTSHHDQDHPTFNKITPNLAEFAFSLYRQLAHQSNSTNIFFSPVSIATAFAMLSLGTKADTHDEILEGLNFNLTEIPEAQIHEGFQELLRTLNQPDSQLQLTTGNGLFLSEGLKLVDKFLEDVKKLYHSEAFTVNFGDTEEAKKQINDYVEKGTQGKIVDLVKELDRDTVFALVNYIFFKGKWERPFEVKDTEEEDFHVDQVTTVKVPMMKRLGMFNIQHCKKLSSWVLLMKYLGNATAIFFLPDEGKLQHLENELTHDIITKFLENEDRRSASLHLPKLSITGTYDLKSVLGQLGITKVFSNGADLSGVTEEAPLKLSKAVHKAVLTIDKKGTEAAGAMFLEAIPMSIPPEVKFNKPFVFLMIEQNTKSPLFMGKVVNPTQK
# Assay summary: AAT Function Assay (MSD Assay NL20-SI Cell Line)
# Condition summary: functionally active AAT (AAT-hNE complex, MSD) from NL20 cells expressing human Z-AAT; read-out: NL20 Functional EC50
Listed next: entries and their corresponding EC50.

The value of EC50 measured for the compound O=C(O)c1ccc(-c2nc3cc4[nH]ncc4cc3c(-c3ccc(F)cc3)c2C2CCOCC2)cc1 [Compound 206] turned out to be > 3 µM

Lab note: CC(C)c1c(Oc2ccc(C(=O)O)c(F)c2F)nc2cc3[nH]ncc3cc2c1-c1ccc(F)cc1 [Compound 171] gave EC50 of < 1.16 µM
